Target: GluN1/GluN2A NMDA receptor (GluN1 ligand-binding site) (Rattus norvegicus, UniProt P35439)
Construct: pcDNA3.1 inserts; mRNA-injected Xenopus laevis oocytes; hetero-tetramer
Assay: two-electrode voltage clamp, Xenopus oocytes
PROPERTY: IC50 (µM)
Value expressed in µM; do not type the unit.

Lookup: Name the recorded IC50 for O=C(O)c1cc(O)c2c(Cl)cc(Cl)cc2n1 .
Found: 24.9

meta.source: paper doi:10.1101/2023.08.03.551817v2
